Experiment: Aqueous solubility of pioglitazone salts derived from strong acids or bases
Type: physicochemical
Conditions: aqueous solubility of the salt; * = the salt is dissolved in water to form a blurred solution
Structures can show the parent of a compound that is named as a salt.
REPORTED_METRIC: soluble in H2O

INSERT INTO results (compound, result) VALUES
  ('CCc1ccc(CCOc2ccc(CC3SC(=O)NC3=O)cc2)nc1 (centres unmarked) [Edisylate]', 'Yes'),
  ('CCc1ccc(CCOc2ccc(CC3SC(=O)NC3=O)cc2)nc1 (centres unmarked) [K salt]', 'yes*'),
  ('CCc1ccc(CCOc2ccc(CC3SC(=O)NC3=O)cc2)nc1 (centres unmarked) [Sulfate, pioglitazone sulfate]', 'Yes'),
  ('CCc1ccc(CCOc2ccc(CC3SC(=O)NC3=O)cc2)nc1 (centres unmarked) [Na salt]', 'yes*');
